target: Hck (UniProt P08631); test: phosphorylation enrichment, bacterial display (enrichment ratio); higher = better substrate or ligand; peptides without Tyr show the background;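 note: 11-residue human phosphosite peptides and single-mutation variants displayed on the E. coli surface, counted by deep sequencing, each peptide's frequency after selection divided by its frequency in the unselected input library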;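 note: frequency after pTyr selection over input frequency; kinase dosed for 20-30% of maximal phosphorylation in three min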
Sequence (P08631 whole entry, looked up): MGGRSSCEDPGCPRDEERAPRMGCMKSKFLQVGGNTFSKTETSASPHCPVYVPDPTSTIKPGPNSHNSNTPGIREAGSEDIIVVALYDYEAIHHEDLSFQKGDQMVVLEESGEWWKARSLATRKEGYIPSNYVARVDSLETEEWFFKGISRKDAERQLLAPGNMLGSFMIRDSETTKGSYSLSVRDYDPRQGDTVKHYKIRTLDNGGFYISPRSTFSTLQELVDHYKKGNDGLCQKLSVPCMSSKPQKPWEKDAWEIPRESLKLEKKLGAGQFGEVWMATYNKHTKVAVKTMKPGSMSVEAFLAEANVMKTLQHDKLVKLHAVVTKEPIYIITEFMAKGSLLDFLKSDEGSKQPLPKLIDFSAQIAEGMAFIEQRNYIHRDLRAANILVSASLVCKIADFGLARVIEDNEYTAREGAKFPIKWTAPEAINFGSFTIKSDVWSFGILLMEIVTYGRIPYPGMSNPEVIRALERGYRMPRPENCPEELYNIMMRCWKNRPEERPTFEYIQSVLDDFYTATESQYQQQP
Please use the following phosphorylation enrichment ranges when assigning a class: class A = under 0.5, class B = from 0.5 up to 0.6, class C = 0.6 and over

chainsequence="CDDGKYVYVVT [RPS6KA3_Y488_Y483C]" label="class C"
chainsequence="GCKNHYDKDKP [THAP1_Y14_R13H]" label="class A"
chainsequence="SNSAAYSGSVA [PDLIM5_Y382_T381A]" label="class A"
chainsequence="MNLLGYRQVRS [CHST4_Y359_H361Q]" label="class A"
chainsequence="RFFTTYDTNGR [CLCA1_Y665_YF]" label="class C"
chainsequence="IHETTYNSIKK [ACTA1_Y281_M285K]" label="class C"
chainsequence="RKLVDYDSARH [BIN1_Y150]" label="class A"
chainsequence="CTLLPYFSAPV [DGKE_Y269_R273P_YF]" label="class B"
chainsequence="GKTQQYECKWY [BCR_Y751_D752E]" label="class A"
chainsequence="VRRRSYSAGNA [KANK1_Y324_K321R]" label="class B"
chainsequence="KWLEQYTQAIE [LSP1_Y234_Q229K]" label="class A"
chainsequence="LVPPRYARSEI [PKP2_Y194]" label="class C"
chainsequence="FRPPYYHRNCM [HGD_Y334]" label="class A"
chainsequence="SFNNKYGMVAQ [APOB_Y276_K273N_YF]" label="class A"
chainsequence="PFRKLYESVKK [MKI67_Y241_W238R]" label="class B"
chainsequence="KLFIEYPTGSG [IRF2BPL_Y423]" label="class A"
chainsequence="SPGGDYAAMGA [ERBB3_Y1276_G1271S]" label="class A"
chainsequence="MTFVFYRENLR [NLRP14_Y443_YF]" label="class B"
chainsequence="LITSVYGCSRQ [TMPRSS6_Y290]" label="class C"
chainsequence="PLDGEYFTLQV [TP53_Y327_I332V]" label="class C"
chainsequence="GYRVYYTPDSR [PTPRF_Y451]" label="class C"
chainsequence="MTKEQYIKMNQ [ARFGEF2_Y797_R802Q]" label="class A"
chainsequence="ISHVAYRVLGK [TRRAP_Y892]" label="class A"
chainsequence="GVKLTYGDAQS [SLC28A1_Y404_N409S]" label="class A"
chainsequence="LALTVYADCLA [ABCA4_Y2063_G2059A]" label="class C"
chainsequence="IITVHYVLEES [RYR2_Y4559_A4556T]" label="class B"
chainsequence="VYAANYYKLLG [ROR2_Y645_D644N]" label="class C"
chainsequence="IWGKKYPTCNS [PTPRZ1_Y53_N48I]" label="class A"
chainsequence="FLTQHYDAKPQ [ANG_Y38]" label="class C"
chainsequence="VLVSQYEKLNA [AMZ2_Y26]" label="class A"
chainsequence="DFSLKYATDIP [APC_Y1183_YF]" label="class A"
chainsequence="WFKKFYDANFD [MAPRE2_Y158_YF]" label="class A"
chainsequence="EFDRLYEEFTR [PIK3R1_Y467_YF]" label="class C"
chainsequence="RASGIYYVPKG [APBB1IP_Y340]" label="class C"
chainsequence="DQLVKHGVNPG [TMPO_Y127_Y127H]" label="class A"
chainsequence="TLLSAYQIPRT [GAB2_Y324_P320L]" label="class B"
chainsequence="HGEAYYSEVKA [PAK5_Y182_P187A]" label="class C"
chainsequence="PYIDSYEKDVA [PGM1_Y521_L516P]" label="class C"

----------
target: EPHB2 (UniProt P29323); experiment: phosphorylation enrichment, bacterial display (enrichment ratio); higher = better substrate or ligand; peptides without Tyr show the background
Sequence (P29323 whole entry, looked up): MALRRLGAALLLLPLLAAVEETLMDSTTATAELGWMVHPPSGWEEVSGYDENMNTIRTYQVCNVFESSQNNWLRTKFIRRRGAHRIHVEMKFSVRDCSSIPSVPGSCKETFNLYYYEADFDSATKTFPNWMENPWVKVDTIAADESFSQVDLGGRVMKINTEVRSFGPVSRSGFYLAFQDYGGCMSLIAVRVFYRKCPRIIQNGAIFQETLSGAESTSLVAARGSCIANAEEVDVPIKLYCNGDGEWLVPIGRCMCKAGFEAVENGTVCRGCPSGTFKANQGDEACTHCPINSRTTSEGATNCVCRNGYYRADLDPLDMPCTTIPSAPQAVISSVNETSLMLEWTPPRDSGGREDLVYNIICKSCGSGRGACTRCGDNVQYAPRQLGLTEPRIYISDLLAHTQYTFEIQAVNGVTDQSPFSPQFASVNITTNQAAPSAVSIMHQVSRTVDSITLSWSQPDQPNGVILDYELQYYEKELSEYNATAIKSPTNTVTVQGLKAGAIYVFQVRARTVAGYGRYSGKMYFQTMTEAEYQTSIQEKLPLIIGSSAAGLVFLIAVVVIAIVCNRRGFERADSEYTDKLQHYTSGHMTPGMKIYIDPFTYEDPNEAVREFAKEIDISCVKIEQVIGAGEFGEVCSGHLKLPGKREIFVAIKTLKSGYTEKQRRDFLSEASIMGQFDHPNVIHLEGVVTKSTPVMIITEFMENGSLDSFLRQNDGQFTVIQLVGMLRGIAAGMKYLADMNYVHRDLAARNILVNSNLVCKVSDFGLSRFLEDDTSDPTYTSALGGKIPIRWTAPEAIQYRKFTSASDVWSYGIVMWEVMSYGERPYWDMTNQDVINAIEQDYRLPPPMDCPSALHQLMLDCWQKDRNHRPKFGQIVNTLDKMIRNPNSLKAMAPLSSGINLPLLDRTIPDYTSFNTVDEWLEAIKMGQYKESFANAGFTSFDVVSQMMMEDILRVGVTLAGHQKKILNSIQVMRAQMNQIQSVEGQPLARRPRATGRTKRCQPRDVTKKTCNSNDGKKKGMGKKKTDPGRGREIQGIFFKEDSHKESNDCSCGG
propertyName: phosphorylation enrichment

chainsequence="MSNFAYVKREV [SCN1A_Y1694]" readoutvalue=0.437
chainsequence="LITSVYGCSRQ [TMPRSS6_Y290]" readoutvalue=1
chainsequence="ETKENYGKTLK [CHL1_Y291]" readoutvalue=0.297
chainsequence="CERFSYFGMKA [SLC15A2_Y60_YF]" readoutvalue=0.745
chainsequence="KPLMPCMRFSR [SMARCE1_Y73_Y73C_YF]" readoutvalue=0.448
chainsequence="EYYENYIEELK [PARP4_Y218_F215Y]" readoutvalue=0.967
chainsequence="GLRYGYGGLGG [KRTAP20-2_Y15_V17G]" readoutvalue=0.31
chainsequence="QMRLRYLAAEE [CEP120_Y884]" readoutvalue=0.643
chainsequence="WAMLAYNRSKL [WWOX_Y293]" readoutvalue=0.417
chainsequence="SPGGDYAAMGA [ERBB3_Y1276_G1271S]" readoutvalue=0.901
chainsequence="PVDVAYRHGYF [PLEC_Y2967_R2969H]" readoutvalue=1.48
chainsequence="AHLTEYLSTHF [UQCRC1_Y219_D215H_YF]" readoutvalue=0.499
chainsequence="QADVIYVNTQL [MERTK_Y872]" readoutvalue=0.962
chainsequence="KKHFSYAWPFY [BRDT_Y291]" readoutvalue=0.428
chainsequence="EGNERYEGYCV [GRIA3_Y451]" readoutvalue=0.562
chainsequence="KLFFHYDPKLC [INSR_Y457_N458D]" readoutvalue=0.516
chainsequence="HGEAYYSEVKA [PAK5_Y182_P187A]" readoutvalue=0.563
chainsequence="LHAAAYWNALA [UQCRC2_Y182_R183W]" readoutvalue=0.572

----------
test system: c-Abl (mouse); experiment: phosphorylation enrichment, bacterial display (enrichment ratio); higher = better substrate or ligand; peptides without Tyr show the background
Label YES when phosphorylation enrichment is at or above 0.8; otherwise label NO.

chainsequence="AAQNCYKVTNG [TPI1_Y105]" experimentaltarget="c-Abl (mouse)" label=NO
chainsequence="NSNSDYVDVLP [SH2D1B_Y127]" experimentaltarget="c-Abl (mouse)" label=NO
chainsequence="RSIGEYDVLRG [PRKDC_Y2936]" experimentaltarget="c-Abl (mouse)" label=YES
chainsequence="SISYDYCRVPM [BST2_Y8_T4I]" experimentaltarget="c-Abl (mouse)" label=YES

----------
molecular target: FGFR1 (UniProt P11362); assay: phosphorylation enrichment, bacterial display (enrichment ratio); higher = better substrate or ligand; peptides without Tyr show the background
Sequence (P11362 whole entry, looked up): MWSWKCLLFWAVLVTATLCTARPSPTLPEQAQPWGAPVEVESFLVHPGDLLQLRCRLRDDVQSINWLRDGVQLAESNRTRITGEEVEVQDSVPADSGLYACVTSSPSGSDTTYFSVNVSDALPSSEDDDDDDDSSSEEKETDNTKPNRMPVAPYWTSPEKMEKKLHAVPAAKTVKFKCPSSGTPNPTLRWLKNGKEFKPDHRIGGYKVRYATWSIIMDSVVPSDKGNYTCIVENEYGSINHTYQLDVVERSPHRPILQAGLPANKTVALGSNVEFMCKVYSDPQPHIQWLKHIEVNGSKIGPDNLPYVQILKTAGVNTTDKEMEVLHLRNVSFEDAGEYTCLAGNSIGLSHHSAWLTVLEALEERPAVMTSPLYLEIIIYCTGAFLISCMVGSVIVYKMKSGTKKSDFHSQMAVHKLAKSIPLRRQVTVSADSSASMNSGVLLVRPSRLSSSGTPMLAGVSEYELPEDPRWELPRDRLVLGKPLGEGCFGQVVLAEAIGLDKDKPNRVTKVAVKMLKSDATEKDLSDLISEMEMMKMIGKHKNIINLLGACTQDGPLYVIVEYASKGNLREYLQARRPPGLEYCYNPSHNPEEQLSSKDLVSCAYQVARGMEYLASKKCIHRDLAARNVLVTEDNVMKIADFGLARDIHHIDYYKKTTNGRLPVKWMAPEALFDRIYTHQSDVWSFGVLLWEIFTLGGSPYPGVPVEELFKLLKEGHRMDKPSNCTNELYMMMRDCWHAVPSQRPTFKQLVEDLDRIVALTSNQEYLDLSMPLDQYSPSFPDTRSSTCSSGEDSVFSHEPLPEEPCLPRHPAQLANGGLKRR
propertyName: phosphorylation enrichment

chainsequence="QPSPSYDSSRG [TCF12_Y70]" propertyname="phosphorylation enrichment" readoutvalue=0.561
chainsequence="DDLEVYLKHPL [SACS_Y3477_L3481P]" propertyname="phosphorylation enrichment" readoutvalue=0.643
chainsequence="NPQKSYLIRLF [WAS_Y83_F84L_YF]" propertyname="phosphorylation enrichment" readoutvalue=0.439
chainsequence="EKLIQYCQSKS [AKR1B1_Y199_G204S]" propertyname="phosphorylation enrichment" readoutvalue=0.459
chainsequence="GRVYVYHLSEQ [ITGAE_Y551_R552H]" propertyname="phosphorylation enrichment" readoutvalue=0.559
chainsequence="IKKFKYRIEEH [GJA1_Y137_G138R]" propertyname="phosphorylation enrichment" readoutvalue=0.402
chainsequence="LTYHMYADPNI [SOS1_Y618_F623I]" propertyname="phosphorylation enrichment" readoutvalue=4.27
chainsequence="IVAREYFSDAD [CAMK2A_Y106_E109D_YF]" propertyname="phosphorylation enrichment" readoutvalue=0.461
chainsequence="LEGKEYRMSGE [KRT3_Y511_E509K]" propertyname="phosphorylation enrichment" readoutvalue=0.432
chainsequence="EADRKYEEVAC [TPM3_Y163_R168C]" propertyname="phosphorylation enrichment" readoutvalue=0.598
chainsequence="YGAHNYHPLPV [OAT_Y55]" propertyname="phosphorylation enrichment" readoutvalue=9.73
chainsequence="KELAPYDENRF [RPS19_Y48_W52R]" propertyname="phosphorylation enrichment" readoutvalue=0.48
chainsequence="RNFVHYVQGLK [VWF_Y1400_R1399H]" propertyname="phosphorylation enrichment" readoutvalue=0.429
chainsequence="STEEQYRIRQV [EFHC1_Y115]" propertyname="phosphorylation enrichment" readoutvalue=0.425
chainsequence="PQGVSYIYTID [DCX_Y103_R102S]" propertyname="phosphorylation enrichment" readoutvalue=1.06
chainsequence="ECKASCPGKIT [PRSS3_Y232_Y232C]" propertyname="phosphorylation enrichment" readoutvalue=0.404

----------
target: MERTK (UniProt Q12866); assay: phosphorylation enrichment, bacterial display (enrichment ratio); higher = better substrate or ligand; peptides without Tyr show the background
Sequence (Q12866 whole entry, looked up): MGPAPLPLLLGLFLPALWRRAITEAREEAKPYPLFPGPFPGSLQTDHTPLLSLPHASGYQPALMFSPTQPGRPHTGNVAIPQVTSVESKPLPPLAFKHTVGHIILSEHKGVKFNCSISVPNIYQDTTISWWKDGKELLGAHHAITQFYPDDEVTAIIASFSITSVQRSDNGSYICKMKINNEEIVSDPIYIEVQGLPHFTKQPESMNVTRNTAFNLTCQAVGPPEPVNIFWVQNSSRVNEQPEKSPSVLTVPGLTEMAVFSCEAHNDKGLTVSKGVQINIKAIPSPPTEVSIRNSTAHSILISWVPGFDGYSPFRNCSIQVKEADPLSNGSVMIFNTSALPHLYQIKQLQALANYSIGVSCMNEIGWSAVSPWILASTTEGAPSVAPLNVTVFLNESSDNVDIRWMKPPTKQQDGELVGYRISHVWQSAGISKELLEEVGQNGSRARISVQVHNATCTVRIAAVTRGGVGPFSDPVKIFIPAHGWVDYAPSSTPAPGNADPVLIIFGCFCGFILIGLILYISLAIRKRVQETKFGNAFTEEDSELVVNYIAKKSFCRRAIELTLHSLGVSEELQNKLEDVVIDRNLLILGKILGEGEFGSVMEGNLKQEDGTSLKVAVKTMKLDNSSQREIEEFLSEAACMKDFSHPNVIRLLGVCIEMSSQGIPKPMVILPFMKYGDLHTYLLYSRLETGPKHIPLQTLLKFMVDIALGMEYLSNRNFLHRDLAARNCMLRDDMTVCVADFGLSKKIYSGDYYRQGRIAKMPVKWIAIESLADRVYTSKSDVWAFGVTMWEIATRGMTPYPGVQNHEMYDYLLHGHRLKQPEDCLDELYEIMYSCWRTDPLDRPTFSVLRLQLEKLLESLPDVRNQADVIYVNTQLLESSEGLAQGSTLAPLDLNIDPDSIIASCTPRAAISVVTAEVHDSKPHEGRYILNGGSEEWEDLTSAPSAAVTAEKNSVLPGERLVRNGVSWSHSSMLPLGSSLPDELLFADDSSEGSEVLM
Recorded measurements of phosphorylation enrichment, one per entry
propertyName: phosphorylation enrichment

chainsequence="DKVFTYIFIME [SCN4A_Y1074]" propertyname="phosphorylation enrichment" readoutvalue=0.41
chainsequence=AEVIWYKGDEV propertyname="phosphorylation enrichment" readoutvalue=0.399
chainsequence="PFRKLYESVKK [MKI67_Y241_W238R]" propertyname="phosphorylation enrichment" readoutvalue=0.612
chainsequence="YIRRDYEACKA [BBS4_Y48_K46R]" propertyname="phosphorylation enrichment" readoutvalue=0.435
chainsequence="PATYTYDEYKK [COL8A2_Y648]" propertyname="phosphorylation enrichment" readoutvalue=1.02
chainsequence="PVDTYYDSTRG [DYNC2H1_Y2231_M2227V]" propertyname="phosphorylation enrichment" readoutvalue=0.554

All figures here come from the supplement of paper PMC10065799.
